- targetEntity: human CD38 (Homo sapiens, UniProt P28907)
- Sequence (P28907 whole entry): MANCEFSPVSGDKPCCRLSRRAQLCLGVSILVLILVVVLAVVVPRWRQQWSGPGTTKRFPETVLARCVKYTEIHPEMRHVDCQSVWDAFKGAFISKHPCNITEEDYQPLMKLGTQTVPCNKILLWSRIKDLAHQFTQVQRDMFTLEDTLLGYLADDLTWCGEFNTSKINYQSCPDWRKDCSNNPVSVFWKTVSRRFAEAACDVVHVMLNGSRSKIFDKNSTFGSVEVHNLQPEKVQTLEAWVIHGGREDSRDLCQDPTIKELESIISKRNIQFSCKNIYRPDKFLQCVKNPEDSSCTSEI
- procedureText: human recombinant CD38 enzyme assay (hydrolysis of NAD+)
- conditionNotes: human recombinant CD38, 0.4 nM enzyme, 62.5 μM NAD+; read-out: hCD38 BioChem IC50
measurementLabel: IC50 (µM)

Consider the worked cases shown below.
{"columns": ["molecule", "IC50 / µM"],
 "data": [
  ["CC(C)c1cc(C(=O)N[C@H]2CC[C@H](C(F)F)CC2)nc(-c2cncn2C)n1", 0.021],
  ["O=C(N[C@H]1CC[C@H](O)CC1)c1cc(C(F)(F)F)cc(-n2ccnc2)n1", 0.061],
  ["CO[C@H]1CC[C@H](NC(=O)c2cc([C@H]3CC[C@@H](OC)CC3)nc(-c3cncn3C)n2)CC1", 0.0137],
  ["COCCO[C@H]1CC[C@H](NC(=O)c2cc(C(F)(F)F)nc(-n3ccnc3)n2)CC1", 0.121],
  ["O=C(NC1CC2(C1)CC(F)(F)C2)c1ccnc(-n2ccnc2)n1", 0.079],
  ["Cn1cncc1-c1nc(C(=O)Nc2ccc(C(F)(F)F)nc2)cc(C2CCC(F)(F)CC2)n1", 0.0086],
  ["CO[C@H]1CC[C@H](NC(=O)c2cc(C(F)(F)F)nc(-c3cncn3C)n2)CC1", 0.014],
  ["CO[C@H]1CC[C@H](NC(=O)c2nc(-n3ccnc3)ccc2C)CC1", 0.263],
  ["O=C(N[C@H]1CC[C@H](OC(F)F)CC1)c1nccc(-n2ccnc2)n1", 0.0585],
  ["COc1cc(C(=O)Nc2ccc(C(F)F)nc2)nc(-c2cncn2C)n1", 0.002]
]}

I: O=C(NC1CCCOC1)c1cccc(-n2ccnc2)n1 (stereo not shown)
II: Cn1cncc1-c1nc(C(=O)N[C@H]2CCc3cc(F)ccc32)cc(C2CCOCC2)n1
I'm curious whether I or II has the smaller IC50 number. Which is it? The response must carry the label of the picked entry.
II

I: O=C(N[C@H]1CC[C@H](C(F)F)CC1)c1cncc(-n2ccnc2)n1
II: O=C(N[C@H]1C[C@H](c2ccc(F)cc2F)C1)c1nccc(-n2ccnc2)n1
Identify the entry with the larger IC50. Options: I and II Give the label of your selection.
II
(II: 0.0612 µM, I: 0.022 µM)

1: O=C(NC1CCOC1)c1cccc(-n2ccnc2)n1 (stereo not shown)
2: O=C(N[C@H]1CC[C@](O)(c2ccccc2)CC1)c1nccc(-n2ccnc2)n1
3: Cc1cc(-c2cncn2C)nc(C(=O)Nc2ccc(C(F)(F)F)nc2)n1
Task for the reader: rank each entry by its IC50, from the minimum upward. Dear reader, please state the labels in the requested order.
3, 2, 1

1: O=C(N[C@H]1C[C@H](Oc2ccccc2)C1)c1nccc(-n2ccnc2)n1
2: O=C(Nc1cccnc1)c1cc(C(F)(F)F)cc(-c2cncs2)n1
Could you tell me which of 1 and 2 has the lower IC50 reading? The response must carry the label of the picked entry.
1

P: O=C(Nc1cccnc1)c1cc(C(F)(F)F)cc(-n2ccnc2)n1
Q: COc1ccc(NC(=O)c2cc(C3CCOCC3)nc(-c3cncn3C)n2)cn1
Response body: label of entry with the larger IC50; valid values P , Q . Choose, then provide that item's label.
P

1: Cn1cncc1-c1nc(C(=O)N[C@H]2C[C@H](C(C)(C)O)C2)cc(C2CCOCC2)n1
2: CO[C@H]1CC[C@H](NC(=O)c2cc(O)nc(-n3ccnc3)n2)CC1
3: O=C(N[C@H]1C[C@H](c2ccc(F)cc2)C1)c1nccc(-n2ccnc2)n1
4: COCCO[C@H]1CC[C@H](NC(=O)c2cc(C(F)(F)F)cc(-n3ccnc3)n2)CC1
Please list these molecules in decreasing order of IC50. Put the labels in the requested order and list them out.
2, 4, 3, 1

1: Cn1cncc1-c1nc(C(=O)NC23CC(C(C)(C)O)(C2)C3)cc(C2CCOCC2)n1
2: O=C(N[C@H]1CC[C@H](NCC(F)(F)F)CC1)c1nccc(-n2ccnc2)n1
Parameter check: reported IC50 is higher for which label, 1 or 2 ? Select an item and report its label.
2
(2: 0.0834 µM, 1: 0.0214 µM)

I: Cn1cncc1-c1cncc(C(=O)N[C@H]2CC[C@H](C)CC2)n1
II: Cc1cc(C(=O)N[C@H]2CC[C@H](C(F)F)CC2)nc(-c2cncn2C)c1
Which numeric IC50 is bigger, that of I or that of II ? State your choice using its label.
II

Entry source: patent US20230116972A1
